Origin of measurements: paper PMC8642400

# experimental system: human mAChR M2 (Homo sapiens)
# Sequence (P08172 whole entry): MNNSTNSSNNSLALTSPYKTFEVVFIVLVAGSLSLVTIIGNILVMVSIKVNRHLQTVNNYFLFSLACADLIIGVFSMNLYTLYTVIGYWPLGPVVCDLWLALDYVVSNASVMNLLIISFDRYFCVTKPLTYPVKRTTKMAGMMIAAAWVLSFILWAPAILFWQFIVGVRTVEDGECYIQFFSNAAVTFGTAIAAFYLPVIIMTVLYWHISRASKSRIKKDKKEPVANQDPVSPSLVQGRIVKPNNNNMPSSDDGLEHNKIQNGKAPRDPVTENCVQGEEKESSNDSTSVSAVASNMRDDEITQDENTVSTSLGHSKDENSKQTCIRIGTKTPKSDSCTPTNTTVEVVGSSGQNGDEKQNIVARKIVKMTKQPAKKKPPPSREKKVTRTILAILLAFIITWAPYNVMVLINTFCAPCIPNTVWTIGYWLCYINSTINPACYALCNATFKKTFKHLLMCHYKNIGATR
Structures can show the parent of a compound that is named as a salt.
measured endpoint: pKi
Expect pKi as a plain number equal to -log10 of the molar concentration.

# get_value(readout='pKi', item= Cc1scc2c1N(C(=O)CN1CCN(C)CC1)c1ccccc1NC2=O [telenzepine 2HCl, Telenzepine dihydrochloride] )
7.59

---

# experiment notes: Kinetics of acid-catalysed rearrangement of 2 to 4 in aqueous HCl (HPLC)
# test parameters: 6 M aqueous HCl, Half life of rearrangement, 6 M HCl, 75 °C, initial concentration 50 µg/mL, n = 3
Structures can show the parent of a compound that is named as a salt.
measured endpoint: half-life at 50 µg/mL (min)
The response must be a number in min with no trailing unit.

# get_value(readout='half-life at 50 µg/mL', item= CN1CCN(CC(=O)N2c3ccccc3C(=O)Nc3cccnc32)CC1 [Compound 2, Pirenzepine dihydrochloride] )
25

---

# experiment notes: Kinetics of acid-catalysed rearrangement of 2 to 4 in aqueous HCl (HPLC)
# test parameters: 6 M aqueous HCl, Half life of rearrangement, 6 M HCl, 55 °C, initial concentration 50 µg/mL, n = 3
Counter-ions that a name gives are not always drawn.
measured endpoint: half-life at 50 µg/mL (min)
The response must be a number in min with no trailing unit.

# get_value(readout='half-life at 50 µg/mL', item= CN1CCN(CC(=O)N2c3ccccc3C(=O)Nc3cccnc32)CC1 [Compound 2, Pirenzepine dihydrochloride] )
117

---

Structures can show the parent of a compound that is named as a salt.
What follows is a collection of pKi values obtained with human mAChR M5 (Homo sapiens).
Sequence (P08912 whole entry): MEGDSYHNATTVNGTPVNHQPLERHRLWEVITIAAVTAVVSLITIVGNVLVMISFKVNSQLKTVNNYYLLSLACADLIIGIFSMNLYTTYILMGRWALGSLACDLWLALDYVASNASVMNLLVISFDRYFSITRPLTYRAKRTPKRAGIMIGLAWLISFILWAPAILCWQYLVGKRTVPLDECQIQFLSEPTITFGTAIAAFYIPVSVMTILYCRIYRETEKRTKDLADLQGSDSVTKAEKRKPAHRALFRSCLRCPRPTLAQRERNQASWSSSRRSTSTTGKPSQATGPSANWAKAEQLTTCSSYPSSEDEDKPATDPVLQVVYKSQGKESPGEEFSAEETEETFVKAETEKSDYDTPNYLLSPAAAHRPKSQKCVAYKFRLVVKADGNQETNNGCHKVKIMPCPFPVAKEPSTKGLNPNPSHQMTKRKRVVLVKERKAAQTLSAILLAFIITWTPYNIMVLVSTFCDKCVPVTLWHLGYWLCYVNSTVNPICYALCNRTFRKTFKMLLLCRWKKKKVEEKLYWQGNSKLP
Expect pKi as a plain number equal to -log10 of the molar concentration.

Cc1scc(C(=O)O)c1-n1c(CN2CCN(C)CC2)nc2ccccc21 : 5.39

# get_value(readout='pKi', item= Cc1scc2c1N(C(=O)CN1CCN(C)CC1)c1ccccc1NC2=O [telenzepine 2HCl, Telenzepine dihydrochloride] )
7.80
